target: PAF receptor (Oryctolagus cuniculus, UniProt G1TEI7); construct: platelet membranes where prepared by centrifugation and washing; tissue Pel-Freez (Rogers, AR) (whole rabbit blood); host or cells: rabbit platelet membranes; assay: PAF receptor binding assay ([3H]C18-PAF, rabbit platelet membranes); settings: inhibition of specific binding of 0.6 nM [3H]C18-PAF to rabbit platelet membranes, 60 min, room temperature; Ki calculated from IC50 by Cheng and Prusoff; read-out: PAF Receptor Binding Activity K1
Sequence (G1TEI7 1-342): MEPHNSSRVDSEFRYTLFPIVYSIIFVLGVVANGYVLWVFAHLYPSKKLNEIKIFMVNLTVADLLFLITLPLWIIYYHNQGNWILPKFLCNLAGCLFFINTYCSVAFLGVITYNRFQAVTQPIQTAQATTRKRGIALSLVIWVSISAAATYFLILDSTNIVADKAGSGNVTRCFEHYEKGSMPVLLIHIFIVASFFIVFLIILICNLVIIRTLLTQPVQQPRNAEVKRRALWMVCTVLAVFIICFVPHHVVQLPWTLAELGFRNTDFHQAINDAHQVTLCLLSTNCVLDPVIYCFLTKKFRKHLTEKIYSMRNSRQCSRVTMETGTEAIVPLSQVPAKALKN
Counter-ions that a name gives are not always drawn.
value.type: Ki (nM)

| compound | numeric.result |
| --- | --- |
| COc1ccc(-c2ccc3c(C(=O)c4ccn5c4CSC5c4cccnc4)cn(C(=O)N(C)C)c3c2)cc1 (stereo not shown) [Example 40] | 26 |
| CN(C)C(=O)n1cc(C(=O)c2ccn3c2CSC3c2cccnc2)c2ccc(-c3cccc(S(N)(=O)=O)c3)cc21 (stereo not shown) [Example 80] | 45 |
| NCCn1cc(C(=O)c2ccn3c2CSC3c2cccnc2)c2ccc(-c3ccc(F)cc3)cc21 (stereo not shown) [Example 70, Hydrochloride] | 2.6 |
| CC(C)(C)OC(=O)NCCn1cc(C(=O)c2ccn3c2CSC3c2cccnc2)c2ccc(-c3ccc(F)cc3)cc21 (stereo not shown) [Example 57] | 38 |
